Tested on: DP8
Experiment: 1.7 milliunits of recombinant DP8 in assay buffer: 50 mM Tris, 100 mM NaCl, pH 8.0
Details: human, 37 °C, up to 24 h
measurement-name: cleaved bond

Known results for sequences:
{"residue-sequence": "PPKKGGDGIKPPPIIGR", "readout-value": "P-K"}
{"residue-sequence": "APKFPDSVEELRAAG", "readout-value": "P-K"}
{"residue-sequence": "APGQLALFSVSDKTGLVEFAR", "readout-value": "P-G"}
{"residue-sequence": "APVLSKDSADIESILALNPR", "readout-value": "P-V"}
{"residue-sequence": "APAEILNGKEISAQIR", "readout-value": "P-A"}

# batch size: 2; output cleaved bond per entry
1. APLDLDKYVEIARLCK
2. SPADLPKSWDWRNVDG

Reply:
["P-L", "P-A"]

---

Test system: DP9
Assay: 1.7 milliunits of recombinant DP9 in assay buffer: 50 mM Tris, 100 mM NaCl, pH 8.0
Details: human, 37 °C, up to 24 h
measurement-name: cleaved bond

Known results for sequences:
{"residue-sequence": "SPADLPKSWDWRNVDG", "readout-value": "P-A"}
{"residue-sequence": "APAEILNGKEISAQIR", "readout-value": "P-A"}
{"residue-sequence": "APLDLDKYVEIARLCK", "readout-value": "P-L"}
{"residue-sequence": "PPKKGGDGIKPPPIIGR", "readout-value": "P-K"}
{"residue-sequence": "APGQLALFSVSDKTGLVEFAR", "readout-value": "P-G"}
{"residue-sequence": "APKFPDSVEELRAAG", "readout-value": "P-K"}

Read the next record carefully.
Task item: Item under review: `APVLSKDSADIESILALNPR` . Reported cleaved bond?
Reply: P-V
